Assay: NCI Yeast Anticancer Drug Screen. Data for the bub3 strain (AID 167)
Conditions: S. cerevisiae bub3 mutant strain, at 5.0 µM (retest, dose inferred, filed as 0.5)
The panel holds about 79,000 compounds, 15% with a hit somewhere; the sample as a whole holds those more often. Calls of active or inactive are those of the source. Rule as the data show it: active = growth inhibition above about 70%; inactive = the rest.
Pick one: active, inactive

Dear colleague, could you share the recorded outcome for "Cc1ccc2c(c1)C(=O)N(CC[P+](c1ccccc1)(c1ccccc1)c1ccccc1)C2=O" when you have a moment?
active

Dear colleague, could you share the recorded outcome for O=C(c1ccccc1)C1OC1c1ccccc1Cl (stereo unspecified) when you have a moment?
inactive

Dear colleague, could you share the recorded outcome for "CC(=O)N1CCC(Cc2ccccc2)CC1" when you have a moment?
inactive

Dear colleague, could you share the recorded outcome for "Cc1nc2c(=O)[nH]c3ccc(Cl)cc3c2o1" when you have a moment?
inactive

Dear colleague, could you share the recorded outcome for "Cc1ccc(/C=C/C(=O)c2cc(CN(C)C)c(O)c(CN(C)C)c2)cc1" when you have a moment?
inactive

Dear colleague, could you share the recorded outcome for "Cc1c2c(c(C)c3ccncc13)S(=O)(=O)c1ccccc1-2" when you have a moment?
inactive

Dear colleague, could you share the recorded outcome for "O=c1cccccc1[O-].O=c1cccccc1[O-].O=c1cccccc1[O-].[Sm+3]" when you have a moment?
inactive

Dear colleague, could you share the recorded outcome for "NC(=S)N/N=C\c1nccc2c(C(F)(F)C(F)(F)C(F)(F)F)cccc12" when you have a moment?
inactive

Dear colleague, could you share the recorded outcome for CC(=O)OCC1(O)OCC(OC(C)=O)C(OC(C)=O)C1OC(C)=O (stereo unspecified) when you have a moment?
inactive

Dear colleague, could you share the recorded outcome for "CSC(SC)(C(=O)O)c1cc(-c2c(Cl)cccc2Cl)no1" when you have a moment?
inactive

Dear colleague, could you share the recorded outcome for "O=C(C(=O)c1ccncc1)c1ccccc1" when you have a moment?
inactive

---

Give growth inhibition for every item shown.
Assay: NCI Yeast Anticancer Drug Screen. Data for the mec2-1 strain (AID 157)
Conditions: S. cerevisiae mec2-1 strain, at 50.0 µM, hits give high values
The panel holds about 79,000 compounds, 15% with a hit somewhere; the sample as a whole holds those more often.
# unit: % | format: bare number

Kindly indicate its recorded growth inhibition. Item: "O=[N+]([O-])c1cc(Cl)c(Cl)cc1NS(=O)(=O)c1ccccc1"
49.5

Kindly indicate its recorded growth inhibition. Item: "CSc1ncccc1C(=O)[O][Sn]([c]1ccccc1)([c]1ccccc1)[c]1ccccc1"
97.9

Kindly indicate its recorded growth inhibition. Item: Cc1ccc(S(=O)(=O)n2c3c(c4ccccc42)CCN2C(=O)C(S(=O)(=O)c4ccccc4)=CCC32)cc1 (configuration not stated)
95.7

Kindly indicate its recorded growth inhibition. Item: "Cc1c2ccncc2cc2c3ccccc3n(C)c12"
98.7

Kindly indicate its recorded growth inhibition. Item: O=C(O)C1CC2C3(Cl)C(Cl)=C(Cl)C(Cl)C2(CC1c1c2ccc(=O)c(O)c-2oc2c(O)c(O)ccc12)C3(Cl)Cl (configuration not stated)
49.6

Kindly indicate its recorded growth inhibition. Item: "NC(=S)N/N=C1/C(=O)c2cccc3cccc1c23"
0.1

Kindly indicate its recorded growth inhibition. Item: Nc1nc(N)c2nc(CNc3ccc(C(=O)NC(CCC(=O)O)C(=O)O)cc3)cnc2n1 (configuration not stated)
97.8

Kindly indicate its recorded growth inhibition. Item: "O=C(Cn1cnc2ccc([N+](=O)[O-])cc21)N1CCN(c2ccccc2)CC1"
19.6

Kindly indicate its recorded growth inhibition. Item: COC1(CO)C(=O)N(C)CC(=O)N1C (configuration not stated)
99.7

Kindly indicate its recorded growth inhibition. Item: "CC1=C(/C=C/C(C)=N/NC(N)=S)C(C)(C)CCC1"
80.5

Kindly indicate its recorded growth inhibition. Item: "C/C(=N/Nc1ccccc1)C(=O)O"
97.8

Kindly indicate its recorded growth inhibition. Item: Cc1ccc(C)c(NC(=O)CCC(=O)C(C#N)c2cccc3ccccc23)c1 (configuration not stated)
14.4

Kindly indicate its recorded growth inhibition. Item: O=C1Sc2sc(=S)sc2SC1c1ccccc1 (configuration not stated)
36.5

Kindly indicate its recorded growth inhibition. Item: "C[n+]1c(-c2ccc(/C=N/NC(=O)C(=O)N/N=C/c3ccc(-c4cn5ccccc5[n+]4C)cc3)cc2)cn2ccccc21"
92.1

Kindly indicate its recorded growth inhibition. Item: COc1ccc(C2COc3cc(O)c(O)cc3C2)cc1 (configuration not stated)
99.6

Kindly indicate its recorded growth inhibition. Item: "O=C(CNC(=O)c1ccccc1)Oc1c(Cl)c(Cl)c(Cl)c(Cl)c1Cl"
74.8

Kindly indicate its recorded growth inhibition. Item: "O=C(O)/C(Cl)=C(\Cl)C(=O)Nc1cccc(C(F)(F)F)c1"
99.7

Kindly indicate its recorded growth inhibition. Item: "O=C(N/N=C/c1ccccc1)c1ccc([N+](=O)[O-])cc1"
7.3

Kindly indicate its recorded growth inhibition. Item: "CC1=NC2=NC(CCCC(=O)OCc3ccc(Cl)c(Cl)c3)=NC3=CC=CC(=N1)N32"
31.1

Kindly indicate its recorded growth inhibition. Item: "CCN(CC)CCCNc1c(O)cc(C)c2sc3ccccc3c(=O)c12"
99.2

Kindly indicate its recorded growth inhibition. Item: "O=[N+]([O-])c1cc2cccnc2c2ncccc12"
41.1

Kindly indicate its recorded growth inhibition. Item: "O=Nc1c(-c2cccc([N+](=O)[O-])c2)nc2cnccn12"
98.5
